- Reported conditions: 318.15 K; 101 kPa; Liquid; Vibrating tube method
Response field label: string, one of Fulfilled (mass density strictly below 700 kg/m3) or Not fulfilled.

Reference set, count: 2
CCCCCCC = Fulfilled
CCCOC(C)=O [propyl ethanoate] = Not fulfilled

Now examine the next entry.
Asked: Is mass density of "CCCCCC" strictly below 700 kg/m3?
Given back: Fulfilled

###

- Reported conditions: 328.15 K; 101 kPa; Liquid; Vibrating tube method
Recorded mass density, one value per entry.
Output spec: scalar in kg/m3, unitless text.

Use the examples below as a reference point.
CCCCCCCC = 674.1
CCCCCC = 627.2
CCCCCCC = 653.7
CCCCCCCCCC = 703.3
CCCOC(C)=O [propyl ethanoate] = 848.3

Asked: Using known records, supply mass density for "CCCCCCCCC"
Given back: 690.2

###

- Reported conditions: 291.15 K; 101 kPa; Liquid; Vibrating tube method
Entries and their mass density values follow.
Express it in kg/m3; write the number only.

Solved cases (3 shown):
CCCCCCCCC = 719.2
CCCCCCCC = 704.1
CCCCCCC = 685.3

Next, consider the following compound.
Asked: # return recorded mass density for entry "CCCCC"
Given back: 628.2

###

- Experiment notes: refractive index (Na D-line) (dimensionless)
- Reported conditions: 298.15 K; 101.33 kPa; Liquid; Standard Abbe refractometry
Readout type: refractive index
Lab note: record just the number, no unit beside it.

CCCCCCCCC = 1.4031
CCCCC = 1.3545
CCCCCCCC = 1.3952
CCCCCC = 1.3723
CCCCCCCCCC = 1.4096

Asked: Please give the documented refractive index of "CCCCCCC"
Given back: 1.3852

Asked: Specify refractive index for CCCOC(C)=O [propyl ethanoate] and stop.
Given back: 1.3818

###

- Reported conditions: 318.15 K; 101 kPa; Liquid; Vibrating tube method
This listing pairs compounds with measured mass density.
Please state the figure in kg/m3; there is no need to write the unit.

Solved cases below.
CCCCCCCCC = 698.1
CCCCCCCCCC = 710.9

Let us move to another entry and its mass density.
Asked: Respond only with mass density recorded for "CCCCCCCC"
Given back: 682.2

###

- Reported conditions: 291.15 K; 101 kPa; Liquid; Vibrating tube method
Readout type: mass density (kg/m3)
Give just the numeric value; kg/m3 need not be written.

Illustrative cases are given below, each with its answer.
CCCCCCCCCC = 731.2
CCCCCC = 661.2

Could you now consider this next molecule?
Asked: Return mass density (reported value) for this molecule: CCCOC(C)=O [propyl ethanoate]
Given back: 889.6
